experiment: ATG_RORE_CIS: Attagene CIS-FACTORIAL HepG2 Assay for human RAR-related Orphan Receptor Element (RORE) (AID 2282959)
condition.notes: HepG2 Attagene cis-factorial RORE reporter, mRNA; actives raise or lower the signal
Calls of active or inactive are those of the source. How the source made its calls: active means hit-call score of the fitted dose curve at least 0.9, where 1 is the maximum; inactive means score below 0.9.
Assign a class; possible classes are active, inactive

A selection of reference data follows.
compound	class
Cc1cccc(C)c1O	inactive
CC1(C)NC(=O)NC1=O	inactive
CN[C@H]1CC[C@@H](c2ccc(Cl)c(Cl)c2)c2ccc(S(N)(=O)=O)cc21	inactive
CC1(C)CC(N=C=O)CC(C)(CN=C=O)C1 (stereo not given)	inactive
CC(=O)OCCOCCOCCOC(C)=O	inactive
Nc1ccc(S(=O)(=O)c2ccc(N)cc2)cc1	inactive
O=C(O)Cc1ccccc1Nc1c(Cl)cccc1Cl	inactive
Nc1nc(N)c2nc(CNc3ccc(C(=O)N[C@@H](CCC(=O)O)C(=O)O)cc3)cnc2n1	inactive
C[Si]1(C)O[Si](C)(C)O[Si](C)(C)O[Si](C)(C)O1	inactive
Cc1oc(-c2ccccc2)nc1CCOc1cccc2c1ccn2CCC(=O)O	active

Ask | Tell me the assay call for COc1ccc(C)cc1N please.
Reply | inactive

Ask | Please let me know the test result on file for CC(CO)OC(C)CO (stereo not given) (tested in a mixture with another compound) .
Reply | inactive

Ask | Just curious, what result did CCCCC(CC)COC(=O)CC(C(=O)OCC(CC)CCCC)S(=O)(=O)O (stereo not given) get here?
Reply | inactive

Ask | Recorded test call requested for CC(C)(C)c1cc(O)c(C(C)(C)C)cc1O
Reply | active

Ask | Entry Cc1nc(-c2ccc3c(c2)CCN(CCC2CCC(NC(=O)/C=C/c4ccc(F)cc4)CC2)CC3)no1 (stereo not given) : call = ?
Reply | inactive

###

Read-out: matrix metalloproteinase-10 (MMP10), MMP10 (gene 4319)
experiment: LTEA_HepaRG_MMP10: Life Technologies and Expression Analysis (LTEA) Assay for matrix metalloproteinase-10 (MMP10) using HepaRG (AID 2283517)
condition.notes: mRNA level, 48 h; actives raise or lower the signal
Calls of active or inactive are those of the source. How the source made its calls: active means hit-call score of the fitted dose curve at least 0.9, where 1 is the maximum; inactive means score below 0.9.
# output must be one of active, inactive

Please review the entries below; each comes with its answer.
molecule	class
CC1(C)NC(=O)NC1=O	inactive
CCCCCCCCCCO	inactive
CC(=O)OCCOCCOCCOC(C)=O	inactive
Cc1cc(=O)[nH]c(=S)[nH]1	inactive
O=C(O)CCCCC(=O)O	inactive
Nc1ccc(S(=O)(=O)c2ccc(N)cc2)cc1	inactive

Ask | Kindly provide the recorded test outcome for the following molecule: CCCCN(CCCC)CCCC
Reply | inactive

Ask | What did the test return for Nc1ccc2c(c1)C(=O)c1ccccc1C2=O ?
Reply | inactive

###

experiment: BSK_BE3C_SRB: Viability Assessment in the BioMAP Diversity Plus: BE3C Assay (AID 2283028);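 further: measured 24 h after chemical dosing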
condition.notes: primary human bronchial epithelial cells
Calls of active or inactive are those of the source. Rule for the calls: active = hit-call score of the fitted dose curve at least 0.9, where 1 is the maximum; inactive = score below 0.9.
Allowed answers: active, inactive

Answered examples (5):
compound	class
CN[C@H]1CC[C@@H](c2ccc(Cl)c(Cl)c2)c2ccc(S(N)(=O)=O)cc21	active
Cc1c(C(=O)O)c(O)cc2c1C(=O)c1c(O)c([C@@H]3O[C@H](CO)[C@@H](O)[C@H](O)[C@H]3O)c(O)c(O)c1C2=O	inactive
CCCCCCCCCCCCCCCC	inactive
COc1ccc(C)cc1N	inactive
CCCCCCOCCO	inactive

Ask | Outcome? CCOC(=O)CCC(=O)OCC
Reply | inactive

Ask | I would be grateful if you could indicate the recorded call for C=CCc1ccc(O)c(OC)c1 .
Reply | inactive

Ask | Hi, do you know how CC(=O)C(C)=CC1C(C)=CCCC1(C)C (stereo not drawn) came out in this test?
Reply | inactive
